# System: NOMO1
# test: AUC of viability dose-response curve (% viability x log10 dose units); higher = less sensitive
# stated conditions: HPLM + 10% dialyzed FBS; 48 h
Lab note: cut-off is 400. Strictly less in AUC of viability dose-response curve is Met. Exactly 400 or more is Not met.

*Q* Bench note: check whether `NC(=O)c1noc([C@H](CCCC2CCCCC2)CC(=O)NO)n1` shows AUC of viability dose-response curve below 400
*A* Not met

*Q* Does the reported AUC of viability dose-response curve of the following molecule sit strictly below 400? `O=C(O)Cc1cccc(OCCCN(Cc2cccc(C(F)(F)F)c2Cl)CC(c2ccccc2)c2ccccc2)c1`
*A* Not met

*Q* API: query returns whether the molecule falls strictly under 400 in AUC of viability dose-response curve. Query: `COc1cc2c(Nc3ccc(Cl)c(Cl)c3F)ncnc2cc1OC[C@@H]1C[C@@H]2CN(C)C[C@@H]2C1`
*A* Not met

*Q* Consider `CO[C@@H]1[C@@H](O)[C@H](O)[C@@H](n2c3c(Cl)cccc3c3c4c(c5c6cccc(Cl)c6[nH]c5c32)C(=O)NC4=O)O[C@H]1CO` . Does its AUC of viability dose-response curve lie strictly below 400?
*A* Met

*Q* Strictly below 400: is that where AUC of viability dose-response curve of `CN1CCN(CCCN2c3ccccc3Sc3ccc(Cl)cc32)CC1.O=C(O)/C=C\C(=O)O.O=C(O)/C=C\C(=O)O` sits?
*A* Met

*Q* Does this molecule meet the criterion AUC of viability dose-response curve < 400? `N#Cc1ccc(NC(=O)Nc2ccccc2Br)c2nn[nH]c12`
*A* Not met

New cases:
*Q* Please determine if CN1C2CCC1CC(OC(=O)C(CO)c1ccccc1)C2 (stereo not drawn) is below 400 in terms of AUC of viability dose-response curve.
*A* Not met

*Q* I'd appreciate it if you could check whether `CC(C)(C)OC(=O)Nc1ccc(-c2cc(C(=O)NCCCCCCC(=O)NO)no2)cc1` has AUC of viability dose-response curve smaller than 400.
*A* Met

---

cell viability values by entry
# Tested on: NOMO1
# test: cell viability relative to DMSO control; higher = less cytotoxic
# stated conditions: RPMI 5 mM glucose + 10% FBS; 48 h; 0.19 µM
Give the value in % but do not write % after it.

Some molecules with recorded cell viability:
*Q* # cell viability lookup, item COc1ccc(C2(C#N)CCC(C(=O)O)CC2)cc1OC1CCCC1 (stereo unspecified)
*A* 96.8

*Q* // query cell viability value for entry `O=C1N\C=N/C2=C1C=N[NH]2`
*A* 81.7

*Q* Find the recorded cell viability belonging to `Cc1ccc(-c2cc(C(F)(F)F)nn2-c2ccc([S+](N)(=O)[O-])cc2)cc1` and report it.
*A* 114

*Q* Name the reported cell viability value associated with the molecule CCOCC(O)COc1ccc(NC(=O)CC[S+](C)C)cc1 (stereo unspecified)
*A* 82.1

More entries:
*Q* Fill blank: measured cell viability of the molecule `C[N]1N=CC=C1C/2=C(\C)N(C(=O)C(=C2)/C(=O)NCC3=NC=C(C=C3)[S+](C)([O-])=O)C4=CC=CC(=C4)C(F)(F)F` is ____.
*A* 102

*Q* Which cell viability reading was recorded for the molecule CC(C)[N+]1(C)C2CCC1CC(OC(=O)C(CO)c1ccccc1)C2.O.[Br-] (stereo unspecified) ?
*A* 123
